Biological target: T1, myc-tagged human EphB4 on transfected CHO cells (human, UniProt P54760 16-987)
T1 construct: whole, on cells; also called CHO-EphB4; CHO-hEphB4; not shown: myc tag
T1 sequence (looked up): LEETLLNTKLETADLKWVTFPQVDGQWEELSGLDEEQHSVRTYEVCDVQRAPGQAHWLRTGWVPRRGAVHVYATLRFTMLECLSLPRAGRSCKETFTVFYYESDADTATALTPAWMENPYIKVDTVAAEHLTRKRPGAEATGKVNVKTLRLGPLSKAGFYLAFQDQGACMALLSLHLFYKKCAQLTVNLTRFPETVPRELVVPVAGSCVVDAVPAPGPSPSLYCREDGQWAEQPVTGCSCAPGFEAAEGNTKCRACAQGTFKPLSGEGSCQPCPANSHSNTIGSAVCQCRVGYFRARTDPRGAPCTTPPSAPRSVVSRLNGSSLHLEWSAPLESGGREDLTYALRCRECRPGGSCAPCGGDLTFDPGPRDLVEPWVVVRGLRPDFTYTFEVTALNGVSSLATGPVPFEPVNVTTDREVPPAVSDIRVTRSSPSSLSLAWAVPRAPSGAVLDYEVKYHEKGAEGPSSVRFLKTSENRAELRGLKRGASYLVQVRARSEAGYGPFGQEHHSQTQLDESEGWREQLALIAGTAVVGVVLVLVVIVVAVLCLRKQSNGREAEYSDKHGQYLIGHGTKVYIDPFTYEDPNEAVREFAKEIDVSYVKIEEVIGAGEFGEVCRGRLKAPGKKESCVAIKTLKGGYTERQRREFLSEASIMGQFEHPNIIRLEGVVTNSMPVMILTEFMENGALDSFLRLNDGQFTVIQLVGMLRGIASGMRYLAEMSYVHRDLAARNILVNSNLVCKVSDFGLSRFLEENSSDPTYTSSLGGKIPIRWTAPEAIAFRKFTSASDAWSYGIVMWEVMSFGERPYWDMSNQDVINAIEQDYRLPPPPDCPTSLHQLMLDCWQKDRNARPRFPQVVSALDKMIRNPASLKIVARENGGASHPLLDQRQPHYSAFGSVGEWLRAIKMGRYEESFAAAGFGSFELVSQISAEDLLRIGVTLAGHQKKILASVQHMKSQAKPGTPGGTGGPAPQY
Experiment: FACS competition on CHO-EphB4 cells, competitor murine ephrin-B2
Parameter: IC50 (read off the curve)

Binder: MOR07953 IgG4-Pro (antibody, V domains shown, Fab MOR07953 converted into human IgG4-Pro format) VH: QVELVESGGGLVQPGGSLRLSCAASGFTFNNAWMSWVRQAPGKGLEWVSAINAKGQFTSYADSVKGRFTISRDNSKNTLYLQMNSLRAEDTAVYYCARKGMSFYNNKYAKSMFDLWGQGTLVTVSS VL: DIELTQPPSVSVAPGQTARISCSGDNLGKKYVHWYQQKPGQAPVLVIYYDSKRPSGIPERFSGSNSGNTATLTISGTQAEDEADYYCQTWTLSHMGNVFGGGTKLTVLG
IC50 (read off the curve): ~0.3 nM

Find the recorded IC50 (read off the curve) belonging to MOR07728 IgG4-Pro (antibody, V domains shown, Fab MOR07728 converted into human IgG4-Pro format) VH: QVELVQSGAEVKKPGSSVKVSCKASGGTFSTYAISWVRQAPGQGLEWMGRIIPIFGTANYAQKFQGRVTITADESTSTAYMELSSLRSEDTAVYYCARSSYTILTTYYNYNAMDNWGQGTLVTVSS VL: DIQMTQSPSSLSASVGDRVTITCRASQNINNFLNWYQQKPGKAPKLLIYGSSILQSGVPSRFSGSGSGTDFTLTISSLQPEDFATYYCQQNDFYSPSTFGQGTKVEIKR and report it.
~3 nM
